As shown below, each of these variants has a reported self-cleavage value.
B1: LINE1-mini (parent)
chain: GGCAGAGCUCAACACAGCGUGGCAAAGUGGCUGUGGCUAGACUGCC

variants of: B1; test: self-cleavage, relative activity (ratio to wild type); higher = more cleavage; in vitro, sequencing; the parent is a self-cleaving ribozyme

Completed entries (count: 10):
> print(dat)
    variant.annotation  recorded.value
 1           G22U A41U            0.72
 2           C10A C31G            0.03
 3           A12G A14G            0.04
 4           C10G G40U            0.02
 5           C23A U38G            0.02
 6            A4C C13U            0.35
 7           A11G G35C            0.02
 8           C18G C45G            0.09
 9                G21C            0.72
10           A14G G19C            0.25

Please fill in: self-cleavage reported for C31G U34C = 0.14

// self-cleavage value for G1A C15G : 0.08

Lookup result for C23G A25U ; measured self-cleavage: 0.72

Record A26C U43G . Reported self-cleavage: 0.12

So, A11U G19U ? Its self-cleavage was 0.12

# self-cleavage of A14U G17C = 0.22

Entry C8G G17C — recorded self-cleavage = 0.04

Noted for A12U C37G : its self-cleavage reads 0.06

Measured self-cleavage of G33A G44A : 0.1

So, `G27C` ? Its self-cleavage was 0.72

Just so you know, measured self-cleavage for G29A A39G came out at 0.07

self-cleavage reading for G22A C31G : 0.1

Attribution: the RNAGym collection of RNA variant scans (doi:10.7554/elife.90254)
